This listing pairs molecules with measured IC50.
# Target: full-length human BTK (Homo sapiens (Human), UniProt Q06187)
# Sequence (Q06187 whole entry): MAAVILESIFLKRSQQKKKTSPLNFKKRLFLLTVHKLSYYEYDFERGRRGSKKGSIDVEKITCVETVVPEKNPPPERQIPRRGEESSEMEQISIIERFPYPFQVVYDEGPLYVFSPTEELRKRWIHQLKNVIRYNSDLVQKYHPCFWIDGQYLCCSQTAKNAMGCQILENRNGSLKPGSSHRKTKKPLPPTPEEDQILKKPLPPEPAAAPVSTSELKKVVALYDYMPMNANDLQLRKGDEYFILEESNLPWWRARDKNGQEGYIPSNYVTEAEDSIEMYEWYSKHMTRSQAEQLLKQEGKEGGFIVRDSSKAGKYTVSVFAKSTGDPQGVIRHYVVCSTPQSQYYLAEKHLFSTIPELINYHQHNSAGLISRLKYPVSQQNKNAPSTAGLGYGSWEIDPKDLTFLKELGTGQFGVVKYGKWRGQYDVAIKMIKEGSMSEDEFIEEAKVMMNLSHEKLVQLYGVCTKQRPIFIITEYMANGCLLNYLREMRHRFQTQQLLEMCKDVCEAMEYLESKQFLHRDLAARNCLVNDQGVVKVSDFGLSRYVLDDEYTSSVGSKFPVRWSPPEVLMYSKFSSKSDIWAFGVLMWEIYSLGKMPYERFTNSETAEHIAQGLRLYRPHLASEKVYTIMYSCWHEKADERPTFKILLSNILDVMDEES
# Test Summary: BTK IC50 enzyme assay (microfluidic off-chip mobility shift kinase assay)
# Condition Set: incubated for 90 min. at 27 C; read-out: Time Dependent BTK Enzyme Assay IC50

[
  {
    "Compound": "C=CC(=O)Nc1cccc(-c2c(Oc3ccc(Oc4ccccc4)cc3)ccnc2C(N)=O)c1",
    "IC50": "< 100 nM"
  },
  {
    "Compound": "C=CC(=O)N1CCC(O)(CNc2ncnc(N)c2-c2ccc(Oc3cccc(C(F)(F)F)c3)cc2)CC1",
    "IC50": "< 100 nM"
  }
]

Read the next record carefully.
Task: Please report the recorded IC50 for "CN(C)C/C=C/C(=O)Nc1cccc(-c2c(N)ncnc2Oc2ccc(Oc3ccccc3)cc2)c1" .
Output: < 100 nM

###

# Target: full-length human BTK (Homo sapiens (Human))
# Test Summary: BTK IC50 enzyme assay (microfluidic off-chip mobility shift kinase assay)
# Condition Set: incubated for 90 min. at 27 C; read-out: Time Dependent BTK Enzyme Assay IC50
Experimental Endpoint: IC50

Example compounds with recorded IC50:
[
  {
    "Compound": "Nc1cccc(-c2cnccc2Oc2ccc(Oc3ccccc3)cc2)c1 [A312]",
    "IC50": "> 1000 nM"
  },
  {
    "Compound": "C=CC(=O)N1CCC(F)(CNc2ncnc(N)c2-c2ccc(Oc3ccccc3)cc2)CC1 [A225]",
    "IC50": "< 100 nM"
  },
  {
    "Compound": "C=CC(=O)Nc1cccc(Oc2ncnc(N)c2-c2ccc(OCc3ccccc3)cc2)c1 [A249]",
    "IC50": "< 100 nM"
  }
]

Task: Form field: reported IC50 of CN(C)C/C=C/C(=O)N[C@H]1C[C@H](Nc2ncnc(N)c2-c2ccc(Oc3ccccc3)cc2)C1 [A228]
Output: < 1000 nM

Task: # input compound: CN(C)C/C=C/C(=O)N[C@@H]1CCC[C@H](Nc2ncnc(N)c2-c2ccc(Oc3ccccc3)cc2)C1 (relative stereo) [A63] ; wanted: its IC50
Output: < 1000 nM

Task: I am curious: what IC50 value has been reported for C=CC(=O)Nc1ccc(-c2cnccc2Oc2ccc(Oc3ccccc3)cc2)cc1 [A281] ?
Output: < 1000 nM

Data origin, for the record: patent US9580449B2
